Ref: the kinase profiling compilation of Christmann-Franck et al. (2016)

# Assayed System: TYK2 JH1 catalytic (human)
# Protocol Description: radiometric filter-binding kinase assay, Kinase HotSpot
# Details: compound 0.5 µM; ATP 10 µM
Each record here notes measured residual activity.

# Item Smiles, residual activity
records = [
    ("COc1cc2ncnc(Nc3ccc(O)c(Br)c3)c2cc1OC", "96.5%"),
    ("O=C(O)c1ccc2c3c1cccc3c(=O)n1c3ccccc3nc21", "22.8%"),
    ("Cn1cc(/C=C2\\C(=O)Nc3ccc(S(N)(=O)=O)cc32)c2ccccc21", "35%"),
    ("O=c1c(-c2ccc(F)cc2)c(-c2ccncc2)[nH]n1-c1ccc(Cl)cc1", "90.9%"),
    ("COc1cc2c(N3CCN(C(=O)Nc4ccc(OC(C)C)cc4)CC3)ncnc2cc1OCCCN1CCCCC1", "97.9%"),
    ("c1ccc(-c2cnc(Nc3ccc(OCCN4CCCC4)cc3)s2)cc1", "106%"),
    ("Nc1ncnc2c1cnn2-c1ccccc1", "86.7%"),
    ("N#C/C(=C1/Nc2ccccc2S1)c1ccnc(NCCc2cccnc2)n1", "83.2%"),
    ("O=C1NC(=O)c2c1c1c3ccccc3[nH]c1c1[nH]c3cc(Br)ccc3c21", "81.1%"),
    ("COc1cccc(-c2cc(=O)c3ccccc3o2)c1N", "92.7%"),
    ("Cc1cc(Nc2nc(-c3ccccc3)nc3ccccc23)n[nH]1", "34.3%"),
]
